# experimental-system: human α4β2 nAChRs (Homo sapiens, UniProt P17787+P43681)
# Construct: expressed in transfected cells; the efflux text says only stably transfected cells
# Sequence (P43681 29-627 limits assumed): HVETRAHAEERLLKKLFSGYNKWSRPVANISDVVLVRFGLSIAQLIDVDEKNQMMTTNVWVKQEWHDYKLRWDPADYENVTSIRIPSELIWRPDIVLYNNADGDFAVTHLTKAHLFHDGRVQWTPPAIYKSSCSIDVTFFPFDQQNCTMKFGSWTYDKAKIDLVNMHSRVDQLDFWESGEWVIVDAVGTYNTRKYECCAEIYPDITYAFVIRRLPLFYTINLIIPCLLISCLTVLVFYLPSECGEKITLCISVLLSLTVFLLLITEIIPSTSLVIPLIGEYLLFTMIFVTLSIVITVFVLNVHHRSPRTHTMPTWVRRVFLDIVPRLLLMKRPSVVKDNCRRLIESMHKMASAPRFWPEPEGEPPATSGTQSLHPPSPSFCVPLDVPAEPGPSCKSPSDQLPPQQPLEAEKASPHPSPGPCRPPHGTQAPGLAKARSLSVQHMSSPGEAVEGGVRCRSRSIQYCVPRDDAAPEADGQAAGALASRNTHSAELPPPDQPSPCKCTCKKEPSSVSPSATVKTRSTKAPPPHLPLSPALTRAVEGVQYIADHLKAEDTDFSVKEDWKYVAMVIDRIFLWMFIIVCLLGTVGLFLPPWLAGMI
# Sequence (P17787 26-502): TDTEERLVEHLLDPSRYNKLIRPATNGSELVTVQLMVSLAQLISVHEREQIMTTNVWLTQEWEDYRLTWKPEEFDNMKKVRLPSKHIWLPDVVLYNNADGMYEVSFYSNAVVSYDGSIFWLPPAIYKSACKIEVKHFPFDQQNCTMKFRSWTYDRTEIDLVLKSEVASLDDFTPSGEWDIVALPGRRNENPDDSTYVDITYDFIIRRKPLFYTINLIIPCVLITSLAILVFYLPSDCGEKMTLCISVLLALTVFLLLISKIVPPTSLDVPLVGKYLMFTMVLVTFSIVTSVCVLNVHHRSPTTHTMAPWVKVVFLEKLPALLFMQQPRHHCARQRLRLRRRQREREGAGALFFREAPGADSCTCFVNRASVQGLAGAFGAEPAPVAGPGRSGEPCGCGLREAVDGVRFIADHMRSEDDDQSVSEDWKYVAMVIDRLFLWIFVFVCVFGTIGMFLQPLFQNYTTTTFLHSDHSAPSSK
# method-description: Inhibition of nicotine-stimulated 86Rb+ efflux, cells expressing human α4β2 nAChRs
# Type: cell-based
# conditions-used: 10 min pretreatment before nicotine; read-out: Desensitization Potency (IC50(D,10 min), nM) α4β2
Just a reminder that ties go to class 0: only IC50 strictly below 200 nM counts as class 1.

{"compound": "CN1CCC[C@H]1COc1cncc(C#CCCCCBr)c1 [ZW-109]", "category": "class 0"}
{"compound": "CN1CCC[C@H]1COc1cncc(C#CCCCCO)c1 [ZW-101]", "category": "class 1"}
{"compound": "CCCCC#Cc1cncc(OC[C@@H]2CCCN2C)c1 [ZW-100]", "category": "class 1"}
{"compound": "Cc1cc2n(c(=O)c1)CC1CNCC2C1 (centres unmarked) [SKC-2-150]", "category": "class 0"}
{"compound": "O=c1cc(CO)cc2n1CC1CNCC2C1 (centres unmarked) [SKC-2-203]", "category": "class 0"}
{"compound": "CNc1ccccc1C(=O)OCC#Cc1cncc(OC[C@@H]2CCN2)c1 [Sazetidine-B]", "category": "class 1"}
{"compound": "CN1CCC[C@H]1COc1cncc(C#Cc2ccccc2)c1 [ZW-98]", "category": "class 1"}
{"compound": "CN1CCC[C@H]1COc1cncc(C#CCNC(=O)OC(C)(C)C)c1 [ZW-97]", "category": "class 1"}
